Test system: Staphylococcus aureus (ATCC 25923)
assay-explanation: Antimicrobial activity (growth, OD 600 nm)
Assay type: cell-based
run-conditions: Staphylococcus aureus, ATCC25923; 0.001–10 µM; read-out: IC50 S. aureus
pIC50: −log10 of the molar value.
Task for the reader: assign each of the following molecules its reported pIC50.

-- ask Report measured pIC50 on Staphylococcus aureus (ATCC 25923); entry: O=C(O)c1cn(C2CC2)c2cc(N3CCNCC3)c(F)cc2c1=O [Ciprofloxacin, ciprofloxacin, reference compound]
-- reply 7.54

-- ask Report measured pIC50 on Staphylococcus aureus (ATCC 25923); entry: C[n+]1ccn(CCO)c1 [[C2OHmim]Cl, reference compound]
-- reply < 5.00

-- ask Report measured pIC50 on Staphylococcus aureus (ATCC 25923); entry: CCn1cc(C(=O)O)c(=O)c2cc(F)c(N3CCNCC3)cc21 [Norfloxacin, norfloxacin, reference compound]
-- reply 6.91

-- ask Report measured pIC50 on Staphylococcus aureus (ATCC 25923); entry: Cc1n(CCO)cc[n+]1C [[C2OHDMIM]Cl, reference compound]
-- reply < 5.00

-- ask Report measured pIC50 on Staphylococcus aureus (ATCC 25923); entry: COCCn1cc[n+](C)c1 [[C3Omim]Cl, reference compound]
-- reply < 5.00

-- ask Report measured pIC50 on Staphylococcus aureus (ATCC 25923); entry: CCn1cc[n+](C)c1 [[EMIM]Br, reference compound]
-- reply < 5.00
